tested on: whole blood cells of group 3 pigs vaccinated with BCG-pAg85A; assay type: cell-based, pigs (Sus scrofa domestica)
Listed substances paired with reported IFN-γ levels, BCG / pAg85A animal number 3
experimental readout: IFN-γ levels, BCG / pAg85A animal number 3

INSERT INTO assay_data (substance, test_target, observed_measurement) VALUES
  ('121–140: synthetic overlapping peptide of mature Ag85A, aa 121–140 (AVVGLSMAASSALTLAIYHP; UniProt P9WQP3 164-183, looked up, fragment)', 'whole blood cells of group 3 pigs vaccinated with BCG-pAg85A', '306 pg/mL'),
  ('275–294: synthetic overlapping peptide of mature Ag85A, aa 275–294 (KPDLQRALGATPNTGPAPQG; UniProt P9WQP3 318-337, looked up, fragment)', 'whole blood cells of group 3 pigs vaccinated with BCG-pAg85A', '<5 pg/mL'),
  ('211–230: synthetic overlapping peptide of mature Ag85A, aa 211–230 (CGNGKPSDLGGNNLPAKFLE; UniProt P9WQP3 254-273, looked up, fragment)', 'whole blood cells of group 3 pigs vaccinated with BCG-pAg85A', '13 pg/mL'),
  ('141–160: synthetic overlapping peptide of mature Ag85A, aa 141–160 (QQFVYAGAMSGLLDPSQAMG; UniProt P9WQP3 184-203, looked up, fragment)', 'whole blood cells of group 3 pigs vaccinated with BCG-pAg85A', '1,330 pg/mL'),
  ('161–180: synthetic overlapping peptide of mature Ag85A, aa 161–180 (PTLIGLAMGDAGGYKASDMW; UniProt P9WQP3 204-223, looked up, fragment)', 'whole blood cells of group 3 pigs vaccinated with BCG-pAg85A', '556 pg/mL'),
  ('241–260: synthetic overlapping peptide of mature Ag85A, aa 241–260 (QDAYNAGGGHNGVFDFPDSG; UniProt P9WQP3 284-303, looked up, fragment)', 'whole blood cells of group 3 pigs vaccinated with BCG-pAg85A', '<5 pg/mL'),
  ('101–120: synthetic overlapping peptide of mature Ag85A, aa 101–120 (LTSELPGWLQANRHVKPTGS; UniProt P9WQP3 144-163, looked up, fragment)', 'whole blood cells of group 3 pigs vaccinated with BCG-pAg85A', '1,177 pg/mL'),
  ('201–220: synthetic overlapping peptide of mature Ag85A, aa 201–220 (IANNTRVWVYCGNGKPSDLG; UniProt P9WQP3 244-263, looked up, fragment)', 'whole blood cells of group 3 pigs vaccinated with BCG-pAg85A', '1,315 pg/mL'),
  ('21–40: synthetic overlapping peptide of mature Ag85A, aa 21–40 (DIKVQFQSGGANSPALYLLD; UniProt P9WQP3 64-83, looked up, fragment)', 'whole blood cells of group 3 pigs vaccinated with BCG-pAg85A', '<5 pg/mL'),
  ('35–53: synthetic overlapping peptide of mature Ag85A, aa 35–53 (ALYLLDGLRAQDDFSGWDI; UniProt P9WQP3 78-96, looked up, fragment)', 'whole blood cells of group 3 pigs vaccinated with BCG-pAg85A', '74 pg/mL'),
  ('81–100: synthetic overlapping peptide of mature Ag85A, aa 81–100 (DWYQPACGKAGCQTYKWETF; UniProt P9WQP3 124-143, looked up, fragment)', 'whole blood cells of group 3 pigs vaccinated with BCG-pAg85A', '2,968 pg/mL'),
  ('231–250: synthetic overlapping peptide of mature Ag85A, aa 231–250 (GFVRTSNIKFQDAYNAGGGH; UniProt P9WQP3 274-293, looked up, fragment)', 'whole blood cells of group 3 pigs vaccinated with BCG-pAg85A', '423 pg/mL');
